Quick list: food consumption per entry.
experiment: Safety evaluation: single dose 100 mg/kg by gavage, one week observation; type: in vivo, ICR mouse; conditions: normal ICR mouse, 100 mg/kg single dose, 6 d after administration

Reference set (3 entries):
{"COMPOUND": "COC(=O)c1cc2nc(N3CCCC(N)C3)n(Cc3ccccc3C#N)c(=O)c2s1 (stereo not shown)", "VAL": "22.6 g · day^−1 · cage^−1"}
{"COMPOUND": "COC(=O)c1csc2c(=O)n(Cc3ccccc3C#N)c(N3CCC[C@@H](N)C3)nc12", "VAL": "21.9 g · day^−1 · cage^−1"}
{"COMPOUND": "N#Cc1ccccc1Cn1c(N2CCC[C@@H](N)C2)nc2cc(C(Br)Br)sc2c1=O", "VAL": "20.5 g · day^−1 · cage^−1"}

Okay, next one:
I have this compound here, "N#Cc1ccccc1Cn1c(N2CCC[C@@H](N)C2)nc2c(CO)csc2c1=O" , and I need its recorded food consumption. 21.5 g · day^−1 · cage^−1

###

target: dipeptidyl peptidase 7 (DPP 7) (Homo sapiens, UniProt Q9UHL4)
pIC50: −log10 of the molar value. Structures can show the parent of a compound that is named as a salt.
Values of pIC50 greater than or equal to 4 map to yes (1); values below map to no (0).

The following compounds have reported results that may help.
{"COMPOUND": "N#Cc1ccccc1Cn1c(N2CCC[C@@H](N)C2)nc2c(C(=O)O)csc2c1=O [Compound 44, hydrochloride]", "GROUP_LABEL": "yes (1)"}
{"COMPOUND": "CC(C)CCNC(=O)c1csc2c(=O)n(Cc3ccccc3C#N)c(N3CCC[C@@H](N)C3)nc12 [Compound 78]", "GROUP_LABEL": "yes (1)"}

Determine whether this compound has pIC50 no lower than 4: N#Cc1ccccc1Cn1c(N2CCC[C@@H](N)C2)nc2c(C(=O)NCC3CC3)csc2c1=O [Compound 73] no (0)

Check if pIC50 >= 4 (inclusive). Item: CC(C)CNC(=O)c1csc2c(=O)n(Cc3ccccc3C#N)c(N3CCC[C@@H](N)C3)nc12 [Compound 79] no (0)

Exam item: decide whether the reported pIC50 for COC(=O)c1csc2c(=O)n(Cc3ccccc3C#N)c(N3CCC[C@@H](N)C3)nc12 [Compound 57] is at least 4. yes (1)

Form field: pIC50 at least 4? Entry: N#Cc1ccccc1Cn1c(N2CCC[C@@H](N)C2)nc2c(C(=O)NCc3ccc(C(F)(F)F)cc3)csc2c1=O [Compound 68] no (0)

Does pIC50 meet or surpass 4 for Cc1ccc(CNC(=O)c2csc3c(=O)n(Cc4ccccc4C#N)c(N4CCC[C@@H](N)C4)nc23)cc1 [Compound 64] ? yes (1)

Is pIC50 at least 4? Consider CCNC(=O)c1csc2c(=O)n(Cc3ccccc3C#N)c(N3CCC[C@@H](N)C3)nc12 [Compound 71] no (0)

###

Assay: Safety evaluation: single dose 100 mg/kg by gavage, one week observation
Type: in vivo, ICR mouse
Details: normal ICR mouse, 100 mg/kg single dose, 5 d after administration
Protocol: After grouping, each compound was administrated once through gavage according to the dose of 100 mg/kg at the same time.
PROPERTY_NAME: body weight (g)
# number only, unit g dropped from output

Before answering, review these 3 worked examples.
{"COMPOUND": "COC(=O)c1csc2c(=O)n(Cc3ccccc3C#N)c(N3CCC[C@@H](N)C3)nc12 [DC291009]", "UNIT_SPEC": "g", "body weight": 32.4}
{"COMPOUND": "COC(=O)c1cc2nc(N3CCCC(N)C3)n(Cc3ccccc3C#N)c(=O)c2s1 (stereo not shown) [DC291407]", "UNIT_SPEC": "g", "body weight": 30.5}
{"COMPOUND": "N#Cc1ccccc1Cn1c(N2CCC[C@@H](N)C2)nc2cc(C(Br)Br)sc2c1=O [DC291411]", "UNIT_SPEC": "g", "body weight": 31.8}

Let's switch to this compound now.
What does the record list as body weight for N#Cc1ccccc1Cn1c(N2CCC[C@@H](N)C2)nc2c(CO)csc2c1=O [DC291004] ? 32.0

###

Assay: Safety evaluation: single dose 100 mg/kg by gavage, one week observation
Type: in vivo, ICR mouse
Details: normal ICR mouse, 100 mg/kg single dose, 1 d after administration
Protocol: After grouping, each compound was administrated once through gavage according to the dose of 100 mg/kg at the same time.
Below, each entry is listed with its recorded body weight.
Only the number, expressed in g, is required.

{"COMPOUND": "N#Cc1ccccc1Cn1c(N2CCC[C@@H](N)C2)nc2cc(C(Br)Br)sc2c1=O [DC291411]", "body weight / g": 30.5}
{"COMPOUND": "COC(=O)c1csc2c(=O)n(Cc3ccccc3C#N)c(N3CCC[C@@H](N)C3)nc12 [DC291009]", "body weight / g": 31.3}
{"COMPOUND": "COC(=O)c1cc2nc(N3CCCC(N)C3)n(Cc3ccccc3C#N)c(=O)c2s1 (stereo not shown) [DC291407]", "body weight / g": 30.0}

Sample N#Cc1ccccc1Cn1c(N2CCC[C@@H](N)C2)nc2c(CO)csc2c1=O [DC291004] — what was its body weight? 30.3

###

Each entry below lists one item and its recorded pIC50 value.
target: human DPP IV (Homo sapiens); construct: extracellular fragment of protease DPP IV (aa29-766); assay: DPP IV activity screening (Ala-Pro-AMC fluorescence)
Just the number, please; pIC50 means minus log10 of the concentration in mol/L.

Before answering, review these 3 worked examples.
{"LINE_NOTATION": "COC(=O)[C@H](Cc1ccccc1)NC(=O)c1cc2nc(N3CCC[C@@H](N)C3)n(Cc3ccccc3C#N)c(=O)c2s1", "MEASUREMENT_TARGET": "human DPP IV (Homo sapiens)", "pIC50": 7.42}
{"LINE_NOTATION": "N#Cc1ccccc1Cn1c(N2CCC[C@@H](N)C2)nc2cc(C(=O)N3CCC(CO)CC3)sc2c1=O", "MEASUREMENT_TARGET": "human DPP IV (Homo sapiens)", "pIC50": 7.57}
{"LINE_NOTATION": "N#Cc1ccccc1Cn1c(N2CCC[C@@H](N)C2)nc2cc(C(=O)NCc3ccccc3Cl)sc2c1=O", "MEASUREMENT_TARGET": "human DPP IV (Homo sapiens)", "pIC50": 7.61}

Now for another entry.
Which pIC50 value is on record for "COC(=O)[C@H](Cc1ccccc1)NC(=O)c1csc2c(=O)n(Cc3ccccc3C#N)c(N3CCC[C@@H](N)C3)nc12" ? 7.86

###

The listing below reports pIC50 for molecules tested on Human DPP 9 (Homo sapiens).
Sequence (Q86TI2 whole entry): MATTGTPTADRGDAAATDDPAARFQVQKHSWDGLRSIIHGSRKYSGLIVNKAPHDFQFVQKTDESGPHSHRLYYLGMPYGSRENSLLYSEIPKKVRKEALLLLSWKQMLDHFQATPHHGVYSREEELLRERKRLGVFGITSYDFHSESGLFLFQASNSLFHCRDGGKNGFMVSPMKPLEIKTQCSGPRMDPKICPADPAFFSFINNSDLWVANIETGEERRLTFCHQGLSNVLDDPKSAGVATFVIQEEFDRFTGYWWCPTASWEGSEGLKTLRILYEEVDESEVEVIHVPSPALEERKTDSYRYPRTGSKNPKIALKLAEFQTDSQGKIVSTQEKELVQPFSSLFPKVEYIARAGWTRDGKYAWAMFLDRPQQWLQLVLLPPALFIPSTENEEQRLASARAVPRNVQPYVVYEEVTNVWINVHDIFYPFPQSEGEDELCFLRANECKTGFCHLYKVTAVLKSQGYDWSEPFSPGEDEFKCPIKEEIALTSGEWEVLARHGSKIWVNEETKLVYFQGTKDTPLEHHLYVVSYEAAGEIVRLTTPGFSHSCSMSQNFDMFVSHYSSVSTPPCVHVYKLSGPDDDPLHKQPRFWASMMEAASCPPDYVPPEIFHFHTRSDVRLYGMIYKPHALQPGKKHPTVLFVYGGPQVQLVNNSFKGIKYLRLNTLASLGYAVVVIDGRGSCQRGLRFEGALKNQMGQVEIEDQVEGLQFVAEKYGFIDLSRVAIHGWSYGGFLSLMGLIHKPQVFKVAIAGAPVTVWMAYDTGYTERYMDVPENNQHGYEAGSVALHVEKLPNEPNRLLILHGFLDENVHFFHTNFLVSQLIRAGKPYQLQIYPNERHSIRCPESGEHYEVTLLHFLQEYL
Formally, pIC50 is defined as -log10 of the concentration c, with c in mol/L.

Consider the worked cases shown below.
{"MOLECULE": "N#Cc1ccccc1Cn1c(N2CCC[C@@H](N)C2)nc2cc(C(=O)N3CCCCC3)sc2c1=O [Compound 108]", "pIC50": 3.95}
{"MOLECULE": "CCNC(=O)c1csc2c(=O)n(Cc3ccccc3C#N)c(N3CCC[C@@H](N)C3)nc12 [Compound 71]", "pIC50": 3.62}

Please examine the following record next.
Reported pIC50, molecule N#Cc1ccccc1Cn1c(N2CCC[C@@H](N)C2)nc2cc(COCc3ccccc3)sc2c1=O [Compound 94] : ____ 4.26

###

molecular target: human DPP IV (Homo sapiens, UniProt P27487); construct: extracellular fragment of protease DPP IV (aa29-766); experiment: DPP IV activity screening (Ala-Pro-AMC fluorescence)
Sequence (P27487 29-766): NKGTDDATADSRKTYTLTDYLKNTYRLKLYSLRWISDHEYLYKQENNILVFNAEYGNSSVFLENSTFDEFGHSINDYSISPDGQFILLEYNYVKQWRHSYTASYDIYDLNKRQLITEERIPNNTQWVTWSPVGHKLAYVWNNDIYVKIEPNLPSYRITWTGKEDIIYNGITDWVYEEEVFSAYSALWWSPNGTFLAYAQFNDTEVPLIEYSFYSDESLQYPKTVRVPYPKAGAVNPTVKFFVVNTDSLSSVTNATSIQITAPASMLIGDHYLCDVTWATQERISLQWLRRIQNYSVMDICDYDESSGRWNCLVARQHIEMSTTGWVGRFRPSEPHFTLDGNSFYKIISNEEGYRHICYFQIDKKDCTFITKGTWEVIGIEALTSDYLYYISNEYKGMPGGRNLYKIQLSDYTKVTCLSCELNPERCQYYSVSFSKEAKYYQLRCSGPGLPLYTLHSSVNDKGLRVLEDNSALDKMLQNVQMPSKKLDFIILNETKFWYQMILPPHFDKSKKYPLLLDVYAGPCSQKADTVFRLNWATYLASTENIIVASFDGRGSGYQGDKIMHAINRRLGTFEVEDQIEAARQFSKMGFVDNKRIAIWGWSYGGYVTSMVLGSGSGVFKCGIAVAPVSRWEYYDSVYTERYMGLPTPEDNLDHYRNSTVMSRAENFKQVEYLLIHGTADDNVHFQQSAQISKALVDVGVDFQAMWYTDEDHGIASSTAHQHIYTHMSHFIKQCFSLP
In this section, each of the compounds is paired with its reported pIC50.
# pIC50: negative log10 of molar concentration; output just the value

{"LINE_NOTATION": "CS(=O)(=O)Nc1csc2c(=O)n(Cc3ccccc3C#N)c(N3CCC[C@@H](N)C3)nc12", "pIC50": 7.43}
{"LINE_NOTATION": "N#Cc1ccccc1Cn1c(N2CCC[C@@H](N)C2)nc2c(Br)csc2c1=O", "pIC50": 8.06}
{"LINE_NOTATION": "CC(C)CCNC(=O)c1cc2nc(N3CCC[C@@H](N)C3)n(Cc3ccccc3C#N)c(=O)c2s1", "pIC50": 7.57}
{"LINE_NOTATION": "COC(=O)[C@@H](NC(=O)c1csc2c(=O)n(Cc3ccccc3C#N)c(N3CCC[C@@H](N)C3)nc12)c1ccccc1", "pIC50": 7.45}
{"LINE_NOTATION": "N#Cc1ccccc1Cn1c(N2CCC[C@@H](N)C2)nc2cc(COCc3ccccc3)sc2c1=O", "pIC50": 7.98}

Reported pIC50, compound "N#Cc1ccccc1Cn1c(N2CCC[C@@H](N)C2)nc2c(C(=O)NCCO)csc2c1=O" : ____ 7.88

Tell me the measured pIC50 of "COC(=O)c1csc2c(=O)n(Cc3ccccc3C#N)c(N3CCC[C@@H](N)C3)nc12" , please. 7.70

Bench note: what pIC50 did "CCCCNC(=O)c1cc2nc(N3CCC[C@@H](N)C3)n(Cc3ccccc3C#N)c(=O)c2s1" show? 7.80

meta.source: patent US9045491B2
